- System: MDA-MB-468 breast
- assay-comment: NCI-60 one-dose screen, 48 h
- condition-context: 10 µM unless noted
About 83,000 compounds went through this panel and 20% of them were active in at least one assay; those are over-represented in the sample as a whole. Activity calls are given as the source filed them. Rule for the calls: active = growth percent below 10; inactive = the rest.
Classes used: active, inactive

compound	category
CCN(CC)CCOC(=O)C(c1ccccc1)(c1ccccc1)C(C)C	inactive
CCN(CC)c1ccc(N=C2C=CC(=O)C=C2NC(C)=O)cc1	inactive
CC12CCC(O)CC1=CCC1C2CCC2(C)C3=NN=CC3CC12 (centres undefined)	inactive
OCC1CCC(O)C(CO)N1 (centres undefined)	inactive
Cc1cc(N/N=C/c2nc(-c3ccc(Cl)cc3)oc2C)c2cc(Br)ccc2n1	active
O=C(c1ccccc1)c1cccc(C(Br)Br)c1	inactive
COc1cc(-c2nc(SCc3ccc(C)cc3)[nH]c(=O)c2C#N)ccc1OCc1ccccc1	inactive
Nc1ncnc2c1c(-c1ccc(Oc3ccccc3)cc1)nn2C[C@@H]1SSC[C@H]1O	active
COC(=O)[C@@]12OC[C@]34[C@H]([C@@H](O)[C@@H]1O)[C@@]1(C)[C@H](O)C(=O)C=C(C)[C@@H]1C[C@H]3OC(=O)C(OC(C)=O)[C@@H]24 (some centres undefined)	active
Cc1cc(Nc2nc(N3CCNCC3)nc3ccccc23)n[nH]1	inactive
COc1cc(C2CC(c3cc(Cl)c(C)cc3O)=NN2c2ccc(S(N)(=O)=O)cc2)cc(OC)c1OC (centres undefined)	inactive
CCCS(=O)(=O)c1nc(NC2CC2)cc(-c2ccc3c(ccn3C3CC(C)(C)NC(C)(C)C3)c2)n1	active
O=P(O)(O)OC1C(OP(=O)(O)O)C(OP(=O)(O)O)C(OP(=O)(O)O)C(OP(=O)(O)O)C1OP(=O)(O)O.[Cu+2] (centres undefined)	inactive
CN1CCN(c2nc3scc(-c4ccccc4)c3c(=O)[nH]2)CC1	inactive
CCNc1nc2cc(Nc3ccnc4cc(Cl)ccc34)ccc2o1	inactive
COc1cccc(-c2nc3occn3c2-c2ccnc(NCCCNS(=O)(=O)c3cccc(F)c3)n2)c1	inactive
O=C1/C(=C/c2ccc(F)cc2)Cc2ccccc21	inactive
CC1=C(C(=O)/C=C/c2c[nH]c3ccccc23)C(c2ccccc2)NC(=S)N1 (centres undefined)	inactive
Cc1cccc2c1NC(=O)[C@@]21[C@H](C(=O)c2ccccc2)[C@]2(C(=O)Nc3ccccc32)[C@H]2CCCN21	inactive
CCN(CC)c1ccc(/C=C/C2=[N+](C)c3ccccc3C2(C)C)c(C)c1	active
CC(=O)Nc1cccc(Nc2nc(N[C@@H](C)c3ccccc3)c3ccccc3n2)c1	active
COc1ccc(-c2[nH]c3ccccc3c2C=C(C#N)C#N)cc1	active
CCOC(=O)C1=C(Nc2ccc(OC)cc2)C(N)=NC1=N	inactive
O=C(/C=C\c1ccc2ccccc2n1)c1cc(Cl)ccc1O	inactive
COC(=O)c1nc(=S)[nH]c(C(=O)OC)c1C(=O)c1ccccn1	inactive
Cc1noc(C)c1-c1cc(O)cc(C(O)c2ccccc2)c1 (centres undefined)	inactive
CCN1CCN(C(=O)[C@]23CC[C@@H](C)[C@H](C)[C@@H]2C2=CC[C@@H]4[C@@]5(C)C/C(=C/c6ccncc6)C(=O)C(C)(C)[C@@H]5CC[C@@]4(C)[C@]2(C)CC3)CC1	active
CC1(C)CC[C@]2(c3nnc(-c4ccncc4)o3)CC[C@]3(C)C(=CC[C@@H]4[C@@]5(C)CCC(=O)C(C)(C)[C@@H]5CC[C@]43C)[C@@H]2C1	inactive
CCC(=O)NC1=C(Cl)C(=O)C(NC(=O)CC)=C(Cl)C1=O	active
C/C=C/C/C=C/[C@H](C)C[C@H](O)[C@@H]1C[C@@H]2O[C@H]2/C=C/[C@@H]2OC(C)(C)O[C@H]2/C=C/C[C@H](C)CC(=O)O1	inactive
O=C(NS(=O)(=O)c1ccccc1)n1cc(-c2ccncc2)c(-c2ccc(Cl)c(O)c2)n1	inactive
C[C@H]1OCC2(CCN(c3cnc(C(=O)Nc4cc(F)cc5cccnc45)cn3)CC2)[C@H]1N	active
CC(Nc1ncnc2ccc(-c3cnc(N)nc3)cc12)c1ccccc1 (centres undefined)	active
Clc1cccc(Cl)c1Nc1ccc2nnc(-c3ccncc3)n2n1	inactive
CC(C)(C)c1ccc(Cn2cc(CSc3nc4ccccc4s3)nn2)cc1	inactive
Cn1c(=O)c2c(nc(Nc3cc(=O)[nH]c(=O)[nH]3)n2Cc2ccccc2)n(C)c1=O	inactive
CSc1nc(C)c([N+](=O)[O-])c(N)n1	inactive
c1ccc(OCc2nnc(-c3ccc(Oc4ccccc4)cc3)o2)cc1	inactive
O=c1n(CC2CO2)c(=O)n(CC2CO2)c(=O)n1CC1CO1 (centres undefined)	inactive

* * *

- System: MDA-MB-468 breast
- assay-comment: NCI-60 one-dose screen, 48 h
- condition-context: 10 µM unless noted
This is part of a sample that, as a whole, favours compounds with a hit. Of some 83,000 tested, about 20% had one in any assay. Activity calls are given as the source filed them. Rule for the calls: active = growth percent below 10; inactive = the rest.
Classes used: active, inactive

In [3]: df
Out[3]:
                                    compound  target_or_test_system  category
 0  COc1ccc(OC)c(NC(=O)CCCCCCNC(=O)C(O)(O)C(F)(F)F)c1      MDA-MB-468 breast  inactive
 1  O=[N+]([O-])c1ccc(Sc2nc(Cl)nc(NC3CCCC3)n2)cc1      MDA-MB-468 breast    active
 2  CN1CCN(Cc2ccc(NC(=O)c3ccc(C#N)c(C#Cc4cnc(N)c5ncccc45)c3)cc2C(F)(F)F)CC1      MDA-MB-468 breast  inactive
 3         CC(=O)N(O)c1ccc(/C=C/c2ccccc2)cc1      MDA-MB-468 breast    active
 4  Cc1nc2sc(C(=O)Nc3ccccc3Cl)c(N)c2cc1C(C)O (stereo unspecified)      MDA-MB-468 breast  inactive
 5  Cc1ccc(-c2csc(/N=C3\C(=O)Nc4ccccc43)n2)cc1      MDA-MB-468 breast    active
 6  O=C(NC(Cc1cn(Cc2ccccc2)cn1)C(=O)O)OCC1c2ccccc2-c2ccccc21 (stereo unspecified)      MDA-MB-468 breast  inactive
 7           O=C(/C=C/c1sc(Cl)nc1Cl)c1ccccc1      MDA-MB-468 breast  inactive
 8     NC(=O)c1cc(Br)ccc1NC(=O)/C=C/c1ccccc1      MDA-MB-468 breast  inactive
 9  Cc1ccc(S(=O)(=O)n2cc(C(=O)C(=O)Nc3ccncc3)c3ccccc32)cc1      MDA-MB-468 breast    active
10  C[C@@H]1N=C(c2ccc(Br)cc2)Nc2nc3ccccn3c2C1=O      MDA-MB-468 breast    active

* * *

- Tested on: MDA-MB-468 breast
- assay-comment: NCI-60 one-dose screen, 48 h
- condition-context: 10 µM unless noted
About 83,000 compounds went through this panel and 20% of them were active in at least one assay; those are over-represented in the sample as a whole. Calls of active or inactive are those of the source. The calls were made as follows: active = growth percent below 10; inactive = the rest.
Classes used: active, inactive

compound	target-or-test-system	category
O=C(CN1CCN(c2ccccc2)CC1)N1CCN(c2nnc(-c3ccc(Cl)cc3)c(-c3ccc(Cl)cc3)n2)CC1	MDA-MB-468 breast	inactive
COc1ccc(C2CC(=O)c3c(O)c(OC)c(OC)c(OC)c3O2)cc1O (configuration not stated)	MDA-MB-468 breast	active
NC(=O)c1ncn([C@@H]2O[C@H](CO)[C@@H](O)[C@H]2O)n1	MDA-MB-468 breast	inactive
CC1(C)C(=O)/C(=C\c2cccnc2)C[C@]2(C)[C@H]3CC=C4[C@@H]5C[C@@](C)(C(=O)O)CC[C@]5(C)CC[C@@]4(C)[C@]3(C)CC[C@@H]12	MDA-MB-468 breast	inactive
COc1ccc(/C(=C\c2ccc3c(c2)OCO3)C(=O)Nc2nc3ccccc3s2)cc1	MDA-MB-468 breast	inactive
C#CCNC(=O)[C@]1(C)CC[C@]2(C)CC[C@@H]3C(=CC[C@H]4[C@@]3(C)CC[C@H]3C(C)(C)C(=O)CC[C@]43C)[C@@H]2C1	MDA-MB-468 breast	inactive
COc1ccc(/C(Cl)=N/N=C(\Cl)c2cc(OC)c(OC)c(OC)c2)cc1OC(C)=O	MDA-MB-468 breast	inactive
CCCCCC(=O)OCCC1CCCCC1	MDA-MB-468 breast	inactive
Cc1c2cnccc2c(C)c2c1c1cc(O)ccc1n2C(C)C	MDA-MB-468 breast	inactive
O=C1OCC2=C1C(c1cccc(F)c1)c1cc3c(cc1N2CCO)OCO3 (configuration not stated)	MDA-MB-468 breast	active
CC(=O)NC(C)(C)C(=O)N[C@@H](C)C(=O)NC(C)(C)C(=O)N[C@@H](C)C(=O)NC(C)(C)C(=O)N[C@@H](C)C(=O)N[C@@H](CCC(N)=O)C(=O)NC(C)(C)C(=O)N[C@H](C(=O)NC(C)(C)C(=O)NCC(=O)N[C@@H](CC(C)C)C(=O)NC(C)(C)C(=O)N1CCC[C@H]1C(=O)N[C@H](C(=O)NC(C)(C)C(=O)NC(C)(C)C(=O)N[C@@H](CCC(N)=O)C(=O)N[C@@H](CCC(N)=O)C(=O)N[C@H](CO)CC1CCCCC1)C(C)C)C(C)C	MDA-MB-468 breast	active
CCCCNC(=O)C(=O)NCCCC	MDA-MB-468 breast	inactive
C=C1C(=O)O[C@H]2[C@H]1CC/C(Cn1cc(CNCCc3c[nH]c4ccc(Cl)cc34)nn1)=C\CC[C@@]1(C)O[C@@H]21	MDA-MB-468 breast	inactive
O=C(/C=C/c1ccc2c(c1)OCO2)c1c(O)c2ccccc2oc1=O	MDA-MB-468 breast	inactive
Brc1cccc(-n2ncc3c(Nc4ccc(-c5nnc(-c6ccccc6)o5)cc4)ncnc32)c1	MDA-MB-468 breast	inactive
CC(C)(C)n1cc(-c2ccnc(NCCNS(=O)(=O)c3cccc(F)c3)c2)c(-c2ccccc2)n1	MDA-MB-468 breast	inactive
Cc1cc(Nc2nc(-c3ccncc3)nc3ccccc23)n[nH]1	MDA-MB-468 breast	inactive
CC(C)(O)C(=O)O	MDA-MB-468 breast	inactive
CCOC(=O)C(O)C(O)(c1ccccc1)c1ccccc1 (configuration not stated)	MDA-MB-468 breast	inactive
COc1cc(/C=C2\C(=O)N(Cc3ccc(Cl)cc3)c3ccccc32)cc(OC)c1OC	MDA-MB-468 breast	active
COc1cc(NC(C)CCCNC(C)C)c2ncccc2c1OC (configuration not stated)	MDA-MB-468 breast	inactive
COCCOc1cc2ncnc(N3CCN(c4cc(S(C)(=O)=O)c(C)cc4Cl)CC3)c2cc1OCCOC	MDA-MB-468 breast	inactive
O=C1[C@@H](OS(=O)(=O)CC(F)(F)F)[C@H](c2ccc(F)cn2)N1c1cc2c3ccccc3ccc2c2ccccc12	MDA-MB-468 breast	inactive
CCCn1cnc2c(c1=N)C(c1ccc(Cl)cc1)c1sc3c(C)cccc3c1O2 (configuration not stated)	MDA-MB-468 breast	inactive
COc1ccc2cc(C(C)C(=O)Nc3ccc(S(=O)(=O)Nc4cc(C)on4)cc3)ccc2c1 (configuration not stated)	MDA-MB-468 breast	inactive
S=C(c1ccccc1)N1CCN(c2cccc(Cl)c2)CC1	MDA-MB-468 breast	inactive
CN1CCN(Cc2ccc3c(NNC(=O)c4ccccc4)nc4cc(F)ccc4n23)CC1	MDA-MB-468 breast	active
CCOC(=O)c1cnc(SCC)nc1SC#N	MDA-MB-468 breast	inactive
Cc1cccc[n+]1CCC[n+]1ccccc1C	MDA-MB-468 breast	inactive
O=C(N/N=C/c1cccnc1)c1ccccc1Nc1cccc(C(F)(F)F)c1	MDA-MB-468 breast	inactive
Nc1ccc2c3c(cccc13)-c1ccccc1-2	MDA-MB-468 breast	inactive
CCCCN(CCCC)CC(CN(CC)CC)OC(=O)Nc1ccccc1 (configuration not stated)	MDA-MB-468 breast	inactive
O=C(c1ccccc1)N(C(=S)NCCc1ccc(Cl)cc1)c1ccccc1	MDA-MB-468 breast	inactive
C=C(C(=O)c1ccccc1)C(NC(C)(C)C)c1ccccc1 (configuration not stated)	MDA-MB-468 breast	active
O=S(=O)(Nc1cc(Sc2nc3ccccc3s2)c(O)c2ccccc12)c1ccc2ccccc2c1	MDA-MB-468 breast	active
Cc1ccc(-c2nn(-c3ccccc3)cc2C=C2C(=O)ON=C2C(C)C)cc1	MDA-MB-468 breast	inactive
Cn1cc(C2=C(c3coc4cc(Br)ccc34)C(=O)NC2=O)c2ccccc21	MDA-MB-468 breast	active
